Molecular target: CDK2/Cyclin A2, full-length recombinant, N-terminal GST tag on both proteins (UniProt P24941 1-298; P20248 1-432)
Experiment: cell-based or functional assay
Non-standard residues stand in square brackets, D forms with d. No end group written: not given here. Ala(2-furyl) = N[C@@H](Cc1ccco1)C(=O)O; Cha = N[C@@H](CC1CCCCC1)C(=O)O
Rule: IC50, kinase assay below 20 µM gives T. Equal to or above 20 µM gives F.

{"BINDER": "HAKRRLIA (HELM PEPTIDE1{H.A.K.R.R.L.I.[O=C([C@H](Cc1ccsc1)N[*:1])[*:2]].[am]}$$$$V2.0; N-terminus assumed; SMILES CC[C@H](C)[C@H](NC(=O)[C@H](CC(C)C)NC(=O)[C@H](CCCNC(=N)N)NC(=O)[C@H](CCCNC(=N)N)NC(=O)[C@H](CCCCN)NC(=O)[C@H](C)NC(=O)[C@@H](N)Cc1c[nH]cn1)C(=O)N[C@@H](Cc1ccsc1)C(N)=O) [HAKRRLIX3]", "ASSIGNED_CLASS": "F"}
{"BINDER": "HAKRRLI[Cha]-NH2 (not fully specified, also called HAKRRLIX6; HAKRRLI{CHA}) [HAKRRLIR6]", "ASSIGNED_CLASS": "F"}
{"BINDER": "HAKRRLIA (HELM PEPTIDE1{H.A.K.R.R.L.I.[O=C([C@H](CC1CCC1)N[*:1])[*:2]].[am]}$$$$V2.0; N-terminus assumed; SMILES CC[C@H](C)[C@H](NC(=O)[C@H](CC(C)C)NC(=O)[C@H](CCCNC(=N)N)NC(=O)[C@H](CCCNC(=N)N)NC(=O)[C@H](CCCCN)NC(=O)[C@H](C)NC(=O)[C@@H](N)Cc1c[nH]cn1)C(=O)N[C@@H](CC1CCC1)C(N)=O) [HAKRRLIX4]", "ASSIGNED_CLASS": "F"}
{"BINDER": "HAKRRLI[2‑thienylalanine]-NH2 [HAKRRLIX2]", "ASSIGNED_CLASS": "T"}
{"BINDER": "HAKRRLIA (HELM PEPTIDE1{H.A.K.R.R.L.I.[O=C([C@H](Cc1cccnc1)N[*:1])[*:2]].[am]}$$$$V2.0; N-terminus assumed; SMILES CC[C@H](C)[C@H](NC(=O)[C@H](CC(C)C)NC(=O)[C@H](CCCNC(=N)N)NC(=O)[C@H](CCCNC(=N)N)NC(=O)[C@H](CCCCN)NC(=O)[C@H](C)NC(=O)[C@@H](N)Cc1c[nH]cn1)C(=O)N[C@@H](Cc1cccnc1)C(N)=O) [HAKRRLIX7]", "ASSIGNED_CLASS": "F"}
{"BINDER": "HAKRRLI[Ala(2-furyl)]-NH2 [HAKRRLIX1]", "ASSIGNED_CLASS": "T"}
